Origin of measurements: the supplement of paper PMC10567573

B1: BRF1 (parent)
chain: CTACGSVLEDNIIVSEVQFVESSG

- Variants of: B1
- experimental protocol: protein stability index of a GFP-peptide fusion (GPS, HEK-293T) (PSI 1-6); higher = more stable;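 also: lentivirally expressed fusions sorted by FACS into six bins by GFP to DsRed ratio, PSI derived from sequencing read proportions per bin multiplied by bin number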
- condition label: c terminus: a fixed tail appended
So basically: protein stability index at 4 or higher? That is Yes. Lower than 4? That is No.

# variant string, label
data = [
    ("G24H", "No"),
    ("F19N", "Yes"),
    ("N11D", "No"),
    ("V20D", "Yes"),
    ("L8G", "No"),
    ("V17K", "Yes"),
    ("F19Q", "No"),
    ("Q18F", "No"),
    ("L8V", "No"),
    ("D10A", "No"),
    ("I12R", "Yes"),
    ("C4V", "No"),
    ("T2Y", "No"),
    ("Q18I", "No"),
    ("V7Y", "No"),
    ("A3S", "No"),
    ("L8D", "No"),
    ("E9Y", "No"),
    ("A3G", "No"),
    ("V7I", "No"),
]
